- ASSAYED_TARGET: CYP enzymes involved in melatonin 6-hydroxylation, human liver microsomes (Homo sapiens, UniProt P05177)
- Sequence (P05177 whole entry): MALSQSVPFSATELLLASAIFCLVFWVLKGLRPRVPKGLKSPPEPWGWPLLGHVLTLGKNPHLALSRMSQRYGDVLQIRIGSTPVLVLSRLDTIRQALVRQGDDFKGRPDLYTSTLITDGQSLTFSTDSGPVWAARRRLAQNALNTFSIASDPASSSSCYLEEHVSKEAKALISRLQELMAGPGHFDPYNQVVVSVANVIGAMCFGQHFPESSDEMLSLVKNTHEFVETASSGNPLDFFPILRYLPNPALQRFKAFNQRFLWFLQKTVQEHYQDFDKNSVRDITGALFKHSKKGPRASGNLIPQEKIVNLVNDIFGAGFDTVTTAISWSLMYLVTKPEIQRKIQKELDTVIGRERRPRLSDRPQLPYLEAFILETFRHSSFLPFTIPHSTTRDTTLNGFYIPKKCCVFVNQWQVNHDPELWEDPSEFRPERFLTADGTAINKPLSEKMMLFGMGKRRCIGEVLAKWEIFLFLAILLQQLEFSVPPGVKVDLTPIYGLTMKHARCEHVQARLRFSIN
RECORDED_ENDPOINT: pIC50
One number for each entry, as −log10 of the molar value.

[ask] Quick one: give measured pIC50 for C=C(C)[C@@H]1CCC(C)=C[C@H]1c1c(O)cc(CCCCC)cc1O [CBD, Cannabidiol]
[reply] 4.78

* * *

- ASSAY_COMMENT: Pharmacokinetics of MT, 6-HMT and CBD in SD rats (i.v. and oral)
- CONDITION_DESCRIPTION: male, Sprague-Dawley, rat, in vivo, po, 5 mg/kg, AUC(0–t), rats, p.o., MT + Vehicle 5 mg/kg
RECORDED_ENDPOINT: AUC(0-t) (ng·h/mL)
Numbers only, in ng·h/mL.

[ask] Quick one: give measured AUC(0-t) for `COc1ccc2[nH]cc(CCNC(C)=O)c2c1`
[reply] 267

These measurements were taken from paper PMC12845078.
